src = ChEMBL document CHEMBL2396559

System: Nakaseomyces glabratus
Experiment: Antifungal activity against Candida glabrata ATCC 15126 assessed as growth inhibition at 10 mg/mL by bioautographic agar overlay method
Assay type: functional, organism-based
The source made the active and inactive calls. The rule behind the calls is not given here.
Measured attribute: growth inhibition (GI)

Recorded growth inhibition (GI), per entry:
INSERT INTO assay_data (molecule, result) VALUES
  ('C#Cc1cccc(-c2cn([C@@H]3C=C(Br)[C@@H](O)[C@@H](O)[C@@H]3O)nn2)c1', 'inactive'),
  ('O[C@H]1[C@H](O)[C@@H](n2cc(-c3cccc(-c4cn([C@H]5C=C(Br)[C@@H](O)[C@@H](O)[C@@H]5O)nn4)c3)nn2)C=C(Br)[C@H]1O', 'inactive'),
  ('C#Cc1ccc(-c2cn([C@@H]3C=C(Br)[C@@H](O)[C@@H](O)[C@@H]3O)nn2)cc1', 'inactive'),
  ('O[C@H]1[C@H](O)[C@H](n2cc(-c3ccc(-c4cn([C@H]5C=C(Br)[C@@H](O)[C@@H](O)[C@@H]5O)nn4)cc3)nn2)C=C(Br)[C@H]1O (mixture of isomers)', 'inactive'),
  ('O[C@H]1[C@H](O)[C@H](n2cc(-c3ccc(-c4cn([C@@H]5C=C(Br)[C@@H](O)[C@@H](O)[C@@H]5O)nn4)cc3)nn2)C=C(Br)[C@H]1O', 'inactive');

Moving on to another molecule below.
Query: Quick one: growth inhibition (GI) for "O[C@H]1[C@H](O)[C@H](n2cc(-c3cccc(-c4cn([C@@H]5C=C(Br)[C@@H](O)[C@@H](O)[C@@H]5O)nn4)c3)nn2)C=C(Br)[C@H]1O" ?
Reply: inactive
